target desc: T1, human serum albumin (human, UniProt P02768 25-609)
T1 construct: mature; Bought purified serum albumin; also called HSA; Human albumin
assay procedure: SPR, Fab captured; albumin taken as HSA;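 note: captured antibody exposed to albumin for 3 min association, then dissociation followed, with blank flow-cell reference and buffer-blank injections subtracted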
test readout: kon (M⁻¹ s⁻¹)
Numbers only, in M⁻¹ s⁻¹.

Examples with their reported kon follow.
binder	kon [M⁻¹ s⁻¹]
CA645 gL4gH46 Fab (Fab, V domains shown, Fab: human gamma1 CH1, human kappa (Km3); Kabat numbering) VH: EVQLLESGGGLVQPGGSLRLSCAVSGIDLSNYAINWVRQAPGKGLEWIGIIWASGTTFYATWAKGRFTISRDNSKNTVYLQMNSLRAEDTAVYYCARTYPGYSTAPYFDLWGQGTLVTVSS VL: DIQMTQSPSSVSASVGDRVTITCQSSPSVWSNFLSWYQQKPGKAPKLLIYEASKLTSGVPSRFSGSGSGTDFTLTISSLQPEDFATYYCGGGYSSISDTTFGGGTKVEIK	56400
CA645 gL29gH5 Fab (Fab, V domains shown, Fab: human gamma1 CH1, human kappa (Km3); Kabat numbering) VH: EVQLLESGGGLVQPGGSLRLSCAVSGIDLSNYAINWVRQAPGKGLEWIGIIWASGTTFYATWAKGRFTISRDNSKNTVYLQMNSLRAEDTAVYYCARTVPGYSTAPYFDLWGQGTLVTVSS VL: DIQMTQSPSSVSASVGDRVTITCQSSPSVWSNFLSWYQQKPGKAPKLLIYEASKLTSGVPSRFSGSGVGTDFTLTISSLQPEDFATYYCGGGYSSISDTTFGGGTKVEIK	57700

Now, please, on to the next binder.
Find the measured kon of CA645 gL30gH5 Fab (Fab, V domains shown, Fab: human gamma1 CH1, human kappa (Km3); Kabat numbering) VH: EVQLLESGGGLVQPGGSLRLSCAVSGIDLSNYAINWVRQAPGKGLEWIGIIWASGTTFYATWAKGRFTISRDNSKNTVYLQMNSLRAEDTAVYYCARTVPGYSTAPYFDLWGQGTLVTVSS VL: DIQMTQSPSSVSASVGDRVTITCQSSPSVWSNFLSWYQQKPGKAPKLLIYEASKLTSGVPSRFSGSGIGTDFTLTISSLQPEDFATYYCGGGYSSISDTTFGGGTKVEIK and report it.
58400
